The reported numbers originate from ChEMBL document CHEMBL1944585.

assay: Prodrug activation of compound assessed as sulphur dioxide formation at 100 uM after 30 mins in phosphate buffer at pH 7.4 by pararosaniline-based colorimetric assay in presence of cysteine; conditions: pH 7.4, 0.5 h
MEASURED_METRIC: Drug degradation (µM)
# output: bare number, implied unit µM

Worked examples, 2 molecules total:
{"MOLECULE": "CN1CCN(S(=O)(=O)c2ccc([N+](=O)[O-])cc2[N+](=O)[O-])CC1", "Drug degradation [µM]": 88}
{"MOLECULE": "O=[N+]([O-])c1ccc(S(=O)(=O)N2CCCCC2)c([N+](=O)[O-])c1", "Drug degradation [µM]": 91}

Record request: Drug degradation value, item O=[N+]([O-])c1ccc(S(=O)(=O)NCc2ccccc2)c([N+](=O)[O-])c1 100

Record request: Drug degradation value, item COc1ccc(NS(=O)(=O)c2ccc([N+](=O)[O-])cc2[N+](=O)[O-])cc1 79.5

Record request: Drug degradation value, item O=[N+]([O-])c1ccc(S(=O)(=O)Nc2ccccc2)c([N+](=O)[O-])c1 55

Record request: Drug degradation value, item CCCN(Cc1ccccc1)S(=O)(=O)c1ccc([N+](=O)[O-])cc1[N+](=O)[O-] 88

====

Measured Drug degradation by item
assay: Prodrug activation of compound assessed as sulphur dioxide formation at 100 uM after 30 mins in phosphate buffer at pH 7.4 by pararosaniline-based colorimetric assay in presence of cysteine; conditions: pH 7.4, 0.5 h
Note: state the figure and append the unit.

Worked examples, 3 compounds total:
{"COMPOUND": "O=[N+]([O-])c1ccc(NCc2ccccc2)c([N+](=O)[O-])c1", "Drug degradation": "0 µM"}
{"COMPOUND": "CN(Cc1ccccc1)S(=O)(=O)c1ccc([N+](=O)[O-])cc1[N+](=O)[O-]", "Drug degradation": "100 µM"}
{"COMPOUND": "O=[N+]([O-])c1ccc(S(=O)(=O)N2CCOCC2)c([N+](=O)[O-])c1", "Drug degradation": "96 µM"}

Record request: Drug degradation value, item O=[N+]([O-])c1ccccc1S(=O)(=O)NCc1ccccc1 0 µM

Record request: Drug degradation value, item COC(=O)C(C)NS(=O)(=O)c1ccc([N+](=O)[O-])cc1[N+](=O)[O-] (stereo not given) 93 µM

====

assay: Prodrug activation of compound assessed as sulphur dioxide formation at 100 uM after 30 mins in phosphate buffer at pH 7.4 by pararosaniline-based colorimetric assay in presence of cysteine; details: pH 7.4, 0.5 h
Measured Drug degradation by item
# output: bare number, implied unit µM

Worked examples, 5 compounds total:
{"COMPOUND": "O=S(=O)(NCc1ccccc1)c1ccccc1", "Drug degradation / µM": 0}
{"COMPOUND": "CS(=O)(=O)NCc1ccccc1", "Drug degradation / µM": 0}
{"COMPOUND": "O=[N+]([O-])c1ccc(S(=O)(=O)NCc2ccccc2)cc1", "Drug degradation / µM": 0}
{"COMPOUND": "O=[N+]([O-])c1ccc(S(=O)(=O)Nc2cccc(F)c2)c([N+](=O)[O-])c1", "Drug degradation / µM": 24}
{"COMPOUND": "O=[N+]([O-])c1ccc(Cl)c([N+](=O)[O-])c1 [DINITROCHLOROBENZENE]", "Drug degradation / µM": 0}

Pending compound:
Record request: Drug degradation value, item COC(=O)C1CCCN1S(=O)(=O)c1ccc([N+](=O)[O-])cc1[N+](=O)[O-] (stereo unspecified) 83
